Measured IC50, listed per entry for reference.
# assay.system: SARM1 (ARM-SAM-TIR, full length SARM1) (Homo sapiens, UniProt Q6SZW1)
# Sequence (Q6SZW1 with tags, fused parts or gaps): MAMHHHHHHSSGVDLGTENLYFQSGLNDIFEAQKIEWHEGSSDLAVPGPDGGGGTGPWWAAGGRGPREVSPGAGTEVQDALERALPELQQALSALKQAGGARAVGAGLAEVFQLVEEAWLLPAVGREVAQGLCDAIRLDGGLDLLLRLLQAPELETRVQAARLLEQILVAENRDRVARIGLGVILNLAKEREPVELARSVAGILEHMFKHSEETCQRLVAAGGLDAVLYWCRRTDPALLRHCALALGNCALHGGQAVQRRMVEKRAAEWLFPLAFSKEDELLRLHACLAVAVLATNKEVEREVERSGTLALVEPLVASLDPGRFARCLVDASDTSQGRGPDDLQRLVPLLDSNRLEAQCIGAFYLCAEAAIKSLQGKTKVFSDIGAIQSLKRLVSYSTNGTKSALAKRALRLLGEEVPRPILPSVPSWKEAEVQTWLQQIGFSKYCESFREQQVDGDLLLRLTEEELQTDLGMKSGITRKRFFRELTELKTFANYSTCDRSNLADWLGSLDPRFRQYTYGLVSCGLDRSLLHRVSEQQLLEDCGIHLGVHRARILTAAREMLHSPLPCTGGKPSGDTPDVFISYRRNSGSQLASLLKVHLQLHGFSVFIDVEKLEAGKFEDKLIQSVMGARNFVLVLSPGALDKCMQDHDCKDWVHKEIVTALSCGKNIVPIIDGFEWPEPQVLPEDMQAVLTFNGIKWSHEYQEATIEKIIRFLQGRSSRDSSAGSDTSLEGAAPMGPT
# measurement.description: biochemical
# condition.description: SARM1 IC50 (nM), ARM-SAM-TIR lysate 5 μg/mL from NRK1-HEK293T cells, 2 h pre-incubation, 5 uM NAD+, 2 hr room temperature
property.measured: IC50

molecule	property.measured	recorded.measurement
Cc1c(-c2ccncc2)n[nH]c1N1CCC(Cc2cnc(Cl)c(F)c2)C1=O (stereo not shown) [Compound I-41]	IC50	101 to 500 nM
[2H]C([2H])(c1ccc(Cl)nc1)C1([2H])C(=O)N(c2cc(-c3ccncc3)n[nH]2)C([2H])([2H])C([2H])([2H])C1([2H])[2H] (stereo not shown) [Compound I-79]	IC50	< 50 nM
O=C1C(Cc2ccc(Cl)nc2)CCCN1c1[nH]nc(-c2ccncc2)c1Cl (stereo not shown)	IC50	> 1000 nM
N#Cc1cc(CC2CCN(c3cc(-c4ccncc4)n[nH]3)C2=O)ccc1Cl (stereo not shown)	IC50	101 to 500 nM
N#Cc1c(-c2ccncc2)n[nH]c1N1CCC(Cc2ccc(Cl)nc2)C1=O (stereo not shown)	IC50	51 to 100 nM
O=C1C(Cc2ccc(Cl)nc2)CNN1c1cc(-c2ccncc2)n[nH]1 (stereo not shown)	IC50	> 1000 nM
Cc1c(-c2ccncc2)n[nH]c1N1CCC(Cc2cnc(Cl)c(F)c2)C1=O (single isomer, unassigned) [I-41* (peak 1)]	IC50	101 to 500 nM

----------
# assay.system: SARM1 (ARM-SAM-TIR, full length SARM1) (Homo sapiens)
# Sequence (Q6SZW1 with tags, fused parts or gaps): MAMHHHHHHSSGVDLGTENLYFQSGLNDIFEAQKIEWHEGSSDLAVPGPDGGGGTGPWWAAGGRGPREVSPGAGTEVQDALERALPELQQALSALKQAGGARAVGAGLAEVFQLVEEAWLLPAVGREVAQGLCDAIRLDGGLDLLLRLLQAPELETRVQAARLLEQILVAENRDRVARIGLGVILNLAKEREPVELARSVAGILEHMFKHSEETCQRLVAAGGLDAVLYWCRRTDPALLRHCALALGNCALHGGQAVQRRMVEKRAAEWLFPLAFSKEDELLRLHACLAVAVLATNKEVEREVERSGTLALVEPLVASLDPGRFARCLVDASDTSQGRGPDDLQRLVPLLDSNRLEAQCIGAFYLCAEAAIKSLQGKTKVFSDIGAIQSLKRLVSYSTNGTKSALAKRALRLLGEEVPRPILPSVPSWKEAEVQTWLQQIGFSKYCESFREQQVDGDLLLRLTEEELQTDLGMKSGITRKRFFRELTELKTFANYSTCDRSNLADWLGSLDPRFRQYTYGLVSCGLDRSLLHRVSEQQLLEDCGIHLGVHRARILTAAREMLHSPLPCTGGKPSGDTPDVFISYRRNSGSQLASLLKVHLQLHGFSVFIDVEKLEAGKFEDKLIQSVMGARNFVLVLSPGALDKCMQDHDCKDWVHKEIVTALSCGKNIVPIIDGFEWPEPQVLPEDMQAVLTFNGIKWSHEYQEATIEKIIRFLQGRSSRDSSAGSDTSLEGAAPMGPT
# measurement.description: biochemical
# condition.description: SARM1 IC50 (nM), ARM-SAM-TIR lysate 5 μg/mL from NRK1-HEK293T cells, 2 h pre-incubation, 5 uM NAD+, 2 hr room temperature
property.measured: IC50

> print(dat)
                                   compound  recorded.measurement
1  O=C1C(Cc2ccc(Cl)nc2)CCCN1c1cc(-c2ccncc2)n[nH]1 (stereo not shown) [Compound I-21]               < 50 nM
2  O=C1C(Cc2ccc(Cl)c(F)c2)CCN1c1nnc(-c2ccncc2)[nH]1 (single isomer, unassigned) [I-8* (peak 1)]               < 50 nM
3  N#Cc1ccc(CC2CCN(c3nnc(-c4ccncc4)[nH]3)C2=O)cc1F (stereo not shown) [Compound I-26]         101 to 500 nM
4  O=C1C(Cc2ccc(Cl)c(F)c2)CCCN1c1cc(-c2ccncc2)n[nH]1 (single isomer, unassigned) [I-20* (peak 1)]               < 50 nM
